experimental.details: Selectivity index, ratio of IC50 for ovine COX-1 to IC50 for human recombinant COX-2

{"entry.smiles": "O=C(O)c1cc(-c2ccn(C(F)F)c(=O)c2)ccc1O", "Ratio IC50": "> 15"}
{"entry.smiles": "CC(=O)NS(=O)(=O)c1cc(-c2ccn(C(F)F)c(=O)c2)ccc1C(=O)O", "Ratio IC50": "> 38"}
{"entry.smiles": "O=C(O)c1ccc(-c2ccn(C(F)F)c(=O)c2)cc1O", "Ratio IC50": "> 22"}
{"entry.smiles": "CC(=O)NS(=O)(=O)c1ccc(-c2ccn(C(F)F)c(=O)c2)cc1C(=O)O", "Ratio IC50": "> 5"}

###

This section presents compounds with their documented IC50 values.
target.system: 5-lipoxygenase (Solanum tuberosum, UniProt O49150)
Sequence (O49150 whole entry): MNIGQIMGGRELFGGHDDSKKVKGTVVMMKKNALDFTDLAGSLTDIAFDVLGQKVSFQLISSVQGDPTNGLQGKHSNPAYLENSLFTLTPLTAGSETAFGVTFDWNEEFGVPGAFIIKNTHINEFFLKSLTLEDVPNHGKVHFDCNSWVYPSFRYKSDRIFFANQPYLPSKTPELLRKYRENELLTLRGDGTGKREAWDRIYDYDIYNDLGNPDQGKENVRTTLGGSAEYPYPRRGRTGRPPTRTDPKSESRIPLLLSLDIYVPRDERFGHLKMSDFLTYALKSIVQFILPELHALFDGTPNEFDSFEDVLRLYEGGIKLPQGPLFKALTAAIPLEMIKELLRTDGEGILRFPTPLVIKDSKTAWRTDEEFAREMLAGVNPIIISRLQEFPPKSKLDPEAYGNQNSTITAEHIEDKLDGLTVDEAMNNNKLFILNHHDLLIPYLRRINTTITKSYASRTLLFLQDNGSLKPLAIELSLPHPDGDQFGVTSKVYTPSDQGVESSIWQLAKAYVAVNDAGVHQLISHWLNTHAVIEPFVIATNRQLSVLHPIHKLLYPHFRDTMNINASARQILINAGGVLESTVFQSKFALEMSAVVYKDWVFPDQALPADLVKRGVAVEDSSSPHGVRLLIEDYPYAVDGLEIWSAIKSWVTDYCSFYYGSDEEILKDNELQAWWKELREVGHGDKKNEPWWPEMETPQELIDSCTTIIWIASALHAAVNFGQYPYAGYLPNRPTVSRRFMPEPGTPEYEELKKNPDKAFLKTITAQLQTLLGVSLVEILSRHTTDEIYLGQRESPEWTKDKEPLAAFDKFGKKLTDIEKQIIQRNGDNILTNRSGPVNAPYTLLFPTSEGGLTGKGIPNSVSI

{"compound": "O=C(O)c1ccc(-c2ccn(C(F)F)c(=O)c2)cc1O", "units.of.measure": "nM", "IC50": 4700}
{"compound": "CC(=O)NS(=O)(=O)c1ccc(-c2ccn(C(F)F)c(=O)c2)cc1C(=O)O", "units.of.measure": "nM", "IC50": 320}
{"compound": "O=C(O)/C=C/c1ccc(O)c(O)c1 [CAFFEIC ACID]", "units.of.measure": "nM", "IC50": 4000}
{"compound": "O=C(O)c1cc(-c2ccn(C(F)F)c(=O)c2)ccc1O", "units.of.measure": "nM", "IC50": 370}

###

target.system: Prostaglandin G/H synthase 2 (Homo sapiens)
Sequence (P35354 whole entry): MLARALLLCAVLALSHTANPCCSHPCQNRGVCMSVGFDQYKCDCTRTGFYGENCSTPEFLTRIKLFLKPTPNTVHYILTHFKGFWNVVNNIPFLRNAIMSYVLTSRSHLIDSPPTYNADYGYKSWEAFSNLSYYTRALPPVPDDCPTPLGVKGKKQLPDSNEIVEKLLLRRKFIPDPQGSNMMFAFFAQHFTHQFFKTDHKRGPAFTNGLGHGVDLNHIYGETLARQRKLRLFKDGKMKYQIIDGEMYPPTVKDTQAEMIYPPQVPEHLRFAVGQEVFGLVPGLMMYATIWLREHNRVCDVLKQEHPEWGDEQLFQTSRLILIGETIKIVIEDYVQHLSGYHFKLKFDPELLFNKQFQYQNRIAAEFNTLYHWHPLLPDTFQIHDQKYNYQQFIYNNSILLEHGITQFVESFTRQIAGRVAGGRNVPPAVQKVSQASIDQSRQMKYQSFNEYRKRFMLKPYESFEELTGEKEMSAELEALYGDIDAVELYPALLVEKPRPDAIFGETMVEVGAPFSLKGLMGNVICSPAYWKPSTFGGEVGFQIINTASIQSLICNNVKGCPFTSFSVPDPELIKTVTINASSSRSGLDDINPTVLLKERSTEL
experimental.details: Inhibition of human recombinant COX-2 by enzyme immuno assay

{"entry.smiles": "CC(=O)NS(=O)(=O)c1cc(-c2ccn(C(F)F)c(=O)c2)ccc1C(=O)O", "IC50 (µM)": 2.6}
{"entry.smiles": "CC(=O)NS(=O)(=O)c1ccc(-c2ccn(C(F)F)c(=O)c2)cc1C(=O)O", "IC50 (µM)": 17.6}
{"entry.smiles": "O=C(O)c1cc(-c2ccn(C(F)F)c(=O)c2)ccc1O", "IC50 (µM)": 0.98}
{"entry.smiles": "O=C(O)c1ccc(-c2ccn(C(F)F)c(=O)c2)cc1O", "IC50 (µM)": 4.4}
